# Tgt: Ba/F3 cells containing Ros1 with a mutation at the gatekeeper residue (L2026M) (Homo sapiens, UniProt P08922, L2026M, cells depend on it, form not given)
# Sequence (P08922 whole entry L2026M, form open): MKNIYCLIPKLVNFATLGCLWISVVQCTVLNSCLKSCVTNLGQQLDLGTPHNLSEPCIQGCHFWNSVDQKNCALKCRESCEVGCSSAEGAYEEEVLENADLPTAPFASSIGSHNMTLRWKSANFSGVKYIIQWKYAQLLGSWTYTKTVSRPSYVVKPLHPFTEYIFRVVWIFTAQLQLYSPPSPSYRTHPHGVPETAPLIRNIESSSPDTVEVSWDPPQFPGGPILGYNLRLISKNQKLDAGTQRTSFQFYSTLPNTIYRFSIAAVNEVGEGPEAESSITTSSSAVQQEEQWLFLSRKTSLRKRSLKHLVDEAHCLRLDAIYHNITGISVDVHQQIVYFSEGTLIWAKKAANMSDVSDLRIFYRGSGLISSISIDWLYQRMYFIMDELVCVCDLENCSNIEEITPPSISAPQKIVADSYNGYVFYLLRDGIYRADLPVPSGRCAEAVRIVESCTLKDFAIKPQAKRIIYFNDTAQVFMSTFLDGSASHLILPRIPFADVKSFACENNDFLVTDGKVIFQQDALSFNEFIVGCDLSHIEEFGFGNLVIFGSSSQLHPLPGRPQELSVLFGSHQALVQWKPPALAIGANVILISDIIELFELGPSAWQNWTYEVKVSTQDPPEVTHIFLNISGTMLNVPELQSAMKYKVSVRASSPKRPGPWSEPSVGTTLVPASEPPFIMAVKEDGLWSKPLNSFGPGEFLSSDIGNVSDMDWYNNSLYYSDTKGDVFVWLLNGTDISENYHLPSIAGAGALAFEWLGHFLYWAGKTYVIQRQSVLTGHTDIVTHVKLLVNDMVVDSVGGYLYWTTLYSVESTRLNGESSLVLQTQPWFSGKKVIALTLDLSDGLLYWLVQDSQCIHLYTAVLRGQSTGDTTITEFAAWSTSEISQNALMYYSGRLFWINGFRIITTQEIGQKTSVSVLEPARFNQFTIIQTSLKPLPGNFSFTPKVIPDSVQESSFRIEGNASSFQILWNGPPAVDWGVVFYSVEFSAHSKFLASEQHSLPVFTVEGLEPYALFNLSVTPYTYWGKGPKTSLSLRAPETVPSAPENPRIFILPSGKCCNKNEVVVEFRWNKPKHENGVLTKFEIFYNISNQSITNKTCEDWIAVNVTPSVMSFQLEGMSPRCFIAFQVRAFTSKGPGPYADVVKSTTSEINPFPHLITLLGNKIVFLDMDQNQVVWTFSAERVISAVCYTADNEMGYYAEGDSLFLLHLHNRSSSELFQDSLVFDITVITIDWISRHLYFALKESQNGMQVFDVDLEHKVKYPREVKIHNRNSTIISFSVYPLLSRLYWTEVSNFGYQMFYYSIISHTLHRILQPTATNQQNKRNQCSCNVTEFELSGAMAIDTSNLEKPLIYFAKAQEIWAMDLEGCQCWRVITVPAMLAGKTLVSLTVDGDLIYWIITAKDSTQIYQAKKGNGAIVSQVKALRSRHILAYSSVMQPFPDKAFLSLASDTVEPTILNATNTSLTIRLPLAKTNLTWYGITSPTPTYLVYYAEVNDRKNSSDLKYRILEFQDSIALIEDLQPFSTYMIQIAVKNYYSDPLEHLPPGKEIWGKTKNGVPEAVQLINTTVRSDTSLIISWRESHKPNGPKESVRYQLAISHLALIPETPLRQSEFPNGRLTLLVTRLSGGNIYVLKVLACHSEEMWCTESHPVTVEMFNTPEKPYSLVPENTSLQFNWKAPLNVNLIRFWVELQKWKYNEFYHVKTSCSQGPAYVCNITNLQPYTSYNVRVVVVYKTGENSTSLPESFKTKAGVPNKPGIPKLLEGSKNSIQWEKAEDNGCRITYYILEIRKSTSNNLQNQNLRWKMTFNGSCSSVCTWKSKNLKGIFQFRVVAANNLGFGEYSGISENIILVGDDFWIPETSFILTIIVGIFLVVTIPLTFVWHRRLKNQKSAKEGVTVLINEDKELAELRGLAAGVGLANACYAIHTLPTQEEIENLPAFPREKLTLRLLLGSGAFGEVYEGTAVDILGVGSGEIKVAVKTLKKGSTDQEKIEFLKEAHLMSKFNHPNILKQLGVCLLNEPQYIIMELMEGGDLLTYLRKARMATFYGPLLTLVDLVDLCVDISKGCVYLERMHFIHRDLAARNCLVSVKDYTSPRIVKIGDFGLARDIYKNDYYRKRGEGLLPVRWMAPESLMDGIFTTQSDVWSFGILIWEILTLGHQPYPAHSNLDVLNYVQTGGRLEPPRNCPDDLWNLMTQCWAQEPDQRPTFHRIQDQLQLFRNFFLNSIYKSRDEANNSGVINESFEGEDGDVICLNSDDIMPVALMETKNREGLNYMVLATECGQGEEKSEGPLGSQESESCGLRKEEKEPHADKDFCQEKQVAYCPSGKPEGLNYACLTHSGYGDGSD
# Method Notes: Ba/F3-Ros1 cell proliferation assay, L2026M gatekeeper mutant
# Type: cell-based, murine
# Measurement Parameters: without IL-3
Listed here: items and their measured Ba/F3 Ros1 L2026M (-IL-3) pIC50.
Quantity Measured: Ba/F3 Ros1 L2026M (-IL-3) pIC50

Molecule: CC(C)c1ccc(COc2ccc(-c3c(-c4ccncc4)nn4c3C(=O)N(CC(O)CO)CC4)cc2)c(F)c1F (centres unmarked) [Compound 101]
Quantity Measured: Ba/F3 Ros1 L2026M (-IL-3) pIC50
Qualifying Sign: =
Reading: 6.4

Molecule: CC(C)c1cc(F)c(COc2ccc(-c3c(-c4ccncc4)nn4c3C(=O)N(CC(O)CO)CC4)cc2)cc1F (centres unmarked) [Compound 98]
Quantity Measured: Ba/F3 Ros1 L2026M (-IL-3) pIC50
Qualifying Sign: =
Reading: 6.6

Molecule: CC(C)c1ccc(COc2ccc(-c3c(-c4ccncc4)nn4c3C(=O)NCC4)cc2F)cc1 [Compound 18]
Quantity Measured: Ba/F3 Ros1 L2026M (-IL-3) pIC50
Qualifying Sign: =
Reading: 7.7

Molecule: CC(C)c1ccc(COc2ccc(-c3c(-c4ccncc4)nn4c3C(=O)N(CCOCCO)CC4)cc2)cc1 [Compound 53]
Quantity Measured: Ba/F3 Ros1 L2026M (-IL-3) pIC50
Qualifying Sign: =
Reading: 6.9

Molecule: CC(C)c1ccc(COc2ccc(-c3c(-c4ccncc4)nn4c3C(=O)NCC4)cc2)cc1CCO [Compound 11]
Quantity Measured: Ba/F3 Ros1 L2026M (-IL-3) pIC50
Qualifying Sign: =
Reading: 7.8

Molecule: CC(C)c1ccc(COc2ccc(-c3c(-c4ccncc4)nn4c3C(=O)N(C)CC4)cc2)cc1CCO [Compound 82]
Quantity Measured: Ba/F3 Ros1 L2026M (-IL-3) pIC50
Qualifying Sign: =
Reading: 7.3

Molecule: CC(C)c1ccc(COc2ccc(-c3c(-c4ccncc4)nn4c3C(=O)N(CCO)CC4)c(F)c2F)cc1 [Compound 20]
Quantity Measured: Ba/F3 Ros1 L2026M (-IL-3) pIC50
Qualifying Sign: =
Reading: 7.0

Molecule: CNCC1Cn2nc(-c3ccncc3)c(-c3ccc(OCc4ccc(C(C)C)cc4)cc3)c2C(=O)N1 (centres unmarked) [Compound 194]
Quantity Measured: Ba/F3 Ros1 L2026M (-IL-3) pIC50
Qualifying Sign: =
Reading: 6.2

Molecule: CC(C)c1ccc(COc2ccc(-c3c(-c4ccncc4)nn4c3C(=O)NCC4)c(Cl)c2)cc1 [Compound 24]
Quantity Measured: Ba/F3 Ros1 L2026M (-IL-3) pIC50
Qualifying Sign: =
Reading: 8.2

Molecule: CC(C)c1ccc(COc2ccc(-c3c(-c4ccncn4)nn4c3C(=O)N(CCO)CC4)cc2)cc1 [Compound 159]
Quantity Measured: Ba/F3 Ros1 L2026M (-IL-3) pIC50
Qualifying Sign: =
Reading: 7.2

Molecule: CC(C)c1ccc(COc2ccc(-c3c(-c4ccnc(CO)c4)nn4c3C(=O)NCC4)cc2)cc1 [Compound 233]
Quantity Measured: Ba/F3 Ros1 L2026M (-IL-3) pIC50
Qualifying Sign: =
Reading: 5.9

Molecule: CC(C)c1ccc(C(C)Oc2ccc(-c3c(-c4ccncc4)nn4c3C(=O)N(CCO)CC4)cc2)cc1 (centres unmarked) [Compound 145]
Quantity Measured: Ba/F3 Ros1 L2026M (-IL-3) pIC50
Qualifying Sign: =
Reading: 5.1

Molecule: CC(C)c1ccc(C2CNc3cc(-c4c(-c5ccncc5)nn5c4C(=O)NCC5)ccc3O2)cc1 (racemic) [Compound 226]
Quantity Measured: Ba/F3 Ros1 L2026M (-IL-3) pIC50
Qualifying Sign: =
Reading: 6.8

Molecule: CC(C)c1ccc(COc2ccc(-c3c(-c4ccncc4)nn4c3C(=O)N(CCO)CC4)cc2)cn1 [Compound 81]
Quantity Measured: Ba/F3 Ros1 L2026M (-IL-3) pIC50
Qualifying Sign: =
Reading: 6.5

Molecule: CC(C)c1ccc(COc2ccc(-c3c(-c4ccncc4)nn4c3C(=O)N(CC3CCCO3)CC4)cc2)cc1 (centres unmarked) [Compound 55]
Quantity Measured: Ba/F3 Ros1 L2026M (-IL-3) pIC50
Qualifying Sign: =
Reading: 6.8

Molecule: [2H]C([2H])(O)C([2H])([2H])N1CCn2nc(-c3ccncc3)c(-c3ccc(OCc4ccc(C(C)C)cc4)cc3)c2C1=O [Compound 67]
Quantity Measured: Ba/F3 Ros1 L2026M (-IL-3) pIC50
Qualifying Sign: =
Reading: 7.1

Molecule: O=C1NCCn2nc(-c3ccncc3)c(-c3ccc(OCc4ccc(C5CC5)cc4)cc3)c21 [Compound 4]
Quantity Measured: Ba/F3 Ros1 L2026M (-IL-3) pIC50
Qualifying Sign: =
Reading: 7.4

Molecule: CC(C)c1ccc(COc2ccc(-c3c(-c4ccncn4)nn4c3C(=O)N(CC(O)CO)CC4)cc2)cc1 (centres unmarked) [Compound 161]
Quantity Measured: Ba/F3 Ros1 L2026M (-IL-3) pIC50
Qualifying Sign: =
Reading: 6.7

Molecule: CC(C)c1ccc(COc2ccc(-c3c(-c4ccncc4)nn4c3C(=O)N(CCN(C)C)CC4)cc2)cc1 [Compound 61]
Quantity Measured: Ba/F3 Ros1 L2026M (-IL-3) pIC50
Qualifying Sign: =
Reading: 5.9

Molecule: CC(C)c1ccc(COc2ccc(-c3c(-c4ccncc4)nn4c3C(=O)N(CCO)CC4)cc2)cc1O [Compound 79]
Quantity Measured: Ba/F3 Ros1 L2026M (-IL-3) pIC50
Qualifying Sign: =
Reading: 7.3

Molecule: CC(C)c1ccc(COc2ccc(-c3c(-c4ccncc4)nn4c3C(=O)N(CCS(C)(=O)=O)CC4)cc2)cc1 [Compound 52]
Quantity Measured: Ba/F3 Ros1 L2026M (-IL-3) pIC50
Qualifying Sign: =
Reading: 6.9

Molecule: COc1cc(-c2c(-c3ccnc(N)c3)nn3c2C(=O)N(C)CC3)ccc1OCc1ccc(C(C)C)cc1 [Compound 150]
Quantity Measured: Ba/F3 Ros1 L2026M (-IL-3) pIC50
Qualifying Sign: =
Reading: 7.4

Molecule: CC(C)c1ccc(COc2c(F)cc(-c3c(-c4ccncc4)nn4c3C(=O)NCC4)cc2F)cc1 [Compound 15]
Quantity Measured: Ba/F3 Ros1 L2026M (-IL-3) pIC50
Qualifying Sign: =
Reading: 7.5

Molecule: COc1cc(-c2c(-c3ccncc3)nn3c2C(=O)NCC3)cnc1OCc1ccc(C(C)C)cc1 [Compound 8]
Quantity Measured: Ba/F3 Ros1 L2026M (-IL-3) pIC50
Qualifying Sign: =
Reading: 7.8

Molecule: CC(C)(O)c1ccc(COc2ccc(-c3c(-c4ccncc4)nn4c3C(=O)N(CCO)CC4)cc2)cc1 [Compound 115]
Quantity Measured: Ba/F3 Ros1 L2026M (-IL-3) pIC50
Qualifying Sign: <
Reading: 5

Molecule: CC(C)c1ccc(COc2ccc(-c3c(-c4ccncc4)nn4c3C(=O)N(C(C)CO)CC4)cc2)cc1 (single isomer, unassigned) [Compound 39]
Quantity Measured: Ba/F3 Ros1 L2026M (-IL-3) pIC50
Qualifying Sign: =
Reading: 7.0

Molecule: O=C1c2c(-c3ccc(OCc4ccc(C5CC5)nc4)cc3F)c(-c3ccncc3)nn2CCN1CCO [Compound 207]
Quantity Measured: Ba/F3 Ros1 L2026M (-IL-3) pIC50
Qualifying Sign: =
Reading: 6.5

Molecule: CC(O)CN1CCn2nc(-c3ccncc3)c(-c3ccc(OCc4ccc(C(C)C)cc4)cc3)c2C1 (centres unmarked) [Compound 192]
Quantity Measured: Ba/F3 Ros1 L2026M (-IL-3) pIC50
Qualifying Sign: =
Reading: 6.9
